Tested on: neuronal
ASSAY_TEXT: Inhibition of amyloid beta40 production in rat neuronal cells assessed as inflection point after 3 days by ELISA
Format: cell-based
READOUT_LABEL: Activity (nM)
Numeric only. Scale: nM

Recorded results for 3 compounds are shown here.
>  <COMPOUND_STRUCTURE_STRING>
COc1cc(N2CCN(C(=O)Cn3cnc4c(C(F)(F)F)cccc43)CC2)ccc1-c1cnc(C)o1

>  <VALUE_UNIT>
nM

>  <Activity>
110

$$$$
>  <COMPOUND_STRUCTURE_STRING>
COc1cc(N2CCN(C(=O)Cn3cnc4cc(C(F)(F)F)ccc43)C[C@@H]2C)ccc1-c1cnc(C)o1

>  <VALUE_UNIT>
nM

>  <Activity>
21

$$$$
>  <COMPOUND_STRUCTURE_STRING>
COc1cc(N2CCN(C(=O)N[C@@H](C)c3cccc4ccccc34)CC2)ccc1-c1cnn(C)c1

>  <VALUE_UNIT>
nM

>  <Activity>
180

$$$$

Next compound, Activity to be filled in.
Task: Give the measured Activity of COc1cc(N2CCN(C(=O)N[C@@H](C)c3cccc4ccccc34)CC2)ccc1-n1cnc(C)c1 .
Output: 56

* * *

System: neuronal
ASSAY_TEXT: Inhibition of amyloid beta40 production in rat neuronal cells assessed as inflection point after 3 days by ELISA
Format: cell-based
READOUT_LABEL: Activity (nM)
Numeric only. Scale: nM

Recorded results for 2 compounds are shown here.
>  <COMPOUND_STRUCTURE_STRING>
COc1cc(N2CCN(C(=O)CN3CCc4ccccc43)CC2)ccc1-c1cnc(C)o1

>  <TESTED_SYSTEM>
neuronal

>  <VALUE_UNIT>
nM

>  <Activity>
290

$$$$
>  <COMPOUND_STRUCTURE_STRING>
COc1cc(N2CCN(C(=O)Cn3cnc4cc(C(F)(F)F)ccc43)CC2)ccc1-c1cnc(C)o1

>  <TESTED_SYSTEM>
neuronal

>  <VALUE_UNIT>
nM

>  <Activity>
50

$$$$

Next compound, Activity to be filled in.
Task: Query for neuronal: what Activity does the record show for COc1cc(N2CCN(C(=O)Cn3cnc4cccc(C(F)(F)F)c43)CC2)ccc1-c1cnc(C)o1 ?
Output: 420
